ASSAYED TARGET: SALL4 ZFC4 G921D (HT-SELEX) (Mus musculus, UniProt Q8BX22 870-940, G921D)
Sequence: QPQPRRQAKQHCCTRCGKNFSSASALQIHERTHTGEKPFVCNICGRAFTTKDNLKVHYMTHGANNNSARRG
PROTOCOL SUMMARY: HT-SELEX; high values mean tight binding
CONDITIONS USED: protein: recombinant; vector His6-GST; dsDNA, one strand shown
METRIC: binding signal

Quickly give me recorded binding signal for CTAAAC 1.27 fold-change vs cycle 0

Quickly give me recorded binding signal for ATCAAA 1.69 fold-change vs cycle 0

Quickly give me recorded binding signal for ACTACC 0.968 fold-change vs cycle 0

Quickly give me recorded binding signal for GTATAC 1.34 fold-change vs cycle 0

Quickly give me recorded binding signal for ATCTTG 1.38 fold-change vs cycle 0

Quickly give me recorded binding signal for GATATA 1.77 fold-change vs cycle 0

Quickly give me recorded binding signal for CCGCAA 0.347 fold-change vs cycle 0

Quickly give me recorded binding signal for ACCCGT 0.577 fold-change vs cycle 0

Quickly give me recorded binding signal for ACTTAC 1.47 fold-change vs cycle 0

Quickly give me recorded binding signal for ATACAT 1.83 fold-change vs cycle 0

Quickly give me recorded binding signal for TACGAA 1.22 fold-change vs cycle 0

Quickly give me recorded binding signal for GACTGC 0.525 fold-change vs cycle 0

Quickly give me recorded binding signal for CCAGGC 0.302 fold-change vs cycle 0

Quickly give me recorded binding signal for ATTGAC 1.3 fold-change vs cycle 0

Quickly give me recorded binding signal for CTGTAA 1.33 fold-change vs cycle 0

Quickly give me recorded binding signal for CTACAC 0.893 fold-change vs cycle 0

Quickly give me recorded binding signal for CAATGG 0.923 fold-change vs cycle 0

Quickly give me recorded binding signal for GGACAC 0.559 fold-change vs cycle 0

Quickly give me recorded binding signal for GTGCAC 0.456 fold-change vs cycle 0

Quickly give me recorded binding signal for CAAACC 0.864 fold-change vs cycle 0

Quickly give me recorded binding signal for ACAATC 1.36 fold-change vs cycle 0

Quickly give me recorded binding signal for CTTCGC 0.455 fold-change vs cycle 0

Quickly give me recorded binding signal for AGAGCC 0.505 fold-change vs cycle 0

Quickly give me recorded binding signal for TACTGA 1.42 fold-change vs cycle 0

Quickly give me recorded binding signal for CAAAGC 0.761 fold-change vs cycle 0

Quickly give me recorded binding signal for CCGACG 0.255 fold-change vs cycle 0

Quickly give me recorded binding signal for ACCTAC 0.957 fold-change vs cycle 0

Quickly give me recorded binding signal for AATTGC 1.04 fold-change vs cycle 0

Quickly give me recorded binding signal for GTCGGA 0.501 fold-change vs cycle 0

Quickly give me recorded binding signal for CTTAGC 0.89 fold-change vs cycle 0

Quickly give me recorded binding signal for CCGAAC 0.512 fold-change vs cycle 0

Quickly give me recorded binding signal for GTTTTA 1.54 fold-change vs cycle 0

Quickly give me recorded binding signal for ATGATA 1.86 fold-change vs cycle 0

Quickly give me recorded binding signal for AATATT 2.19 fold-change vs cycle 0

Quickly give me recorded binding signal for AAAATA 1.96 fold-change vs cycle 0

Quickly give me recorded binding signal for GGCGAA 0.36 fold-change vs cycle 0

Quickly give me recorded binding signal for TACCAA 1.32 fold-change vs cycle 0

Quickly give me recorded binding signal for AGTATC 1.44 fold-change vs cycle 0

Quickly give me recorded binding signal for ACTTAA 1.85 fold-change vs cycle 0

Quickly give me recorded binding signal for AGCTCC 0.588 fold-change vs cycle 0
